Test system: A549/ATCC NSCLC
Method: NCI-60 one-dose screen, 48 h
Condition Label: 10 µM unless noted
The panel holds about 83,000 compounds, 20% with a hit somewhere; the sample as a whole holds those more often. Calls of active or inactive are those of the source. The calls were made as follows: active = growth percent below 10; inactive = the rest.
Can you answer with just one of these options? active, inactive

Compound: CC1(C)CC[C@]2(C(=O)O)CC[C@]3(C)C(=CCC4[C@@]5(C)C[C@@H](O)[C@@H]6OC(c7ccco7)OC[C@@]6(C)C5CC[C@]43C)C2C1 (some centres undefined)
Assigned Label: inactive
//
Compound: CCCSc1nc(NCCc2c[nH]c3ccccc23)c(C#N)c(-c2ccc(OC)cc2)n1
Assigned Label: inactive
//
Compound: COc1ccc(/C=N/NC(=O)Cn2nc(Cc3ccc(OC)cc3)c3onc(C)c3c2=O)cc1
Assigned Label: inactive

Challenge: What outcome does the record of this test show for COc1ccc(-c2nc(SCC(C)C)nc(NCCc3c[nH]c4ccccc34)c2C#N)cc1 ?
Response given: inactive

Challenge: Please share the test call associated with N#Cc1c(-c2cccc(O)c2O)cc(-c2ccc3ccccc3c2)[nH]c1=O .
Response given: inactive

---

System: SK-MEL-2 melanoma
Method: NCI-60 one-dose screen, 48 h
Condition Label: 10 µM unless noted
Compounds without any hit were thinned out: in the full panel of roughly 83,000, 20% have a hit. The source made the active and inactive calls. How the source made its calls: active means growth percent below 10; inactive means the rest.
Form entry, call: pick from Yes for active, No for inactive

These solved cases illustrate the format of a correct answer.
Compound: CCOC(=O)C1=C(N)N(c2ccccc2)C2=C(C(=O)CC(C)(C)C2)C1c1ccc([N+](=O)[O-])cc1 (stereo not drawn)
Assigned Label: No

Compound: Cc1cccc(-c2nc(Nc3ccc(C)c(S(N)(=O)=O)c3)c3ccccc3n2)c1
Assigned Label: No

Compound: C=C1CCC2C3(C)COC(c4cccs4)OC3CCC2(C)C1CC(Sc1ccccc1)C1=CCOC1=O (stereo not drawn)
Assigned Label: No

Compound: COc1cc2nc(SCc3ccccc3)n(-c3ccc(Cl)cc3)c(=O)c2cc1OC
Assigned Label: No

Compound: Cc1cc2c(cc1Cl)C(=O)/C(=C/c1ccc(F)cc1)O2
Assigned Label: No

Compound: O=C(COc1ccc(NC(=O)Nc2ccccc2)cc1)N=Nc1c(O)[nH]c2ccc([N+](=O)[O-])cc12
Assigned Label: Yes

Challenge: Any idea what this test logged for Cc1ncsc1-c1ccc(CNC(=O)[C@@H]2C[C@@H](O)CN2C(=O)[C@@H](NC(=O)C2(F)CC2)C(C)(C)C)c(OCCOCCOCCOCCOc2nc(Nc3cc(S(C)(=O)=O)ccc3N[C@@H](c3cccc4c3OC(F)(F)O4)c3ncccc3Cl)nc(N3CCNCC3)n2)c1 ?
Response given: No

Challenge: Any idea what this test logged for Cc1ccc2c(N)c(C(=O)Nc3ccc(OC(F)(F)F)cc3)sc2n1 ?
Response given: No

---

System: EKVX NSCLC
Method: NCI-60 one-dose screen, 48 h (100 = growth as untreated, 0 = no growth, -100 = all killed)
Condition Label: 10 µM unless noted
The panel holds about 83,000 compounds, 20% with a hit somewhere; the sample as a whole holds those more often.
So basically, if growth comes in under 40% it's 1 (yes), and if it's 40% or more it's 0 (no).

Please review the following examples before continuing.
Compound: COc1ccc2[nH]c(=O)c(CSc3nccc(-c4ccc(OC)c(OC)c4)n3)cc2c1
Assigned Label: 1 (yes)
//
Compound: O=C(/C=C/Nc1ccc(Cl)cc1)c1ccc2c(c1)Nc1ccccc1S2
Assigned Label: 0 (no)
//
Compound: NS(=O)(=O)c1ccc(NNC(=O)CCC(=O)c2ccccc2)cc1
Assigned Label: 0 (no)

Challenge: In plain terms, does CCN(CC)c1ccnc(CNCCSC(c2ccccc2)(c2ccccc2)c2ccc(OC)cc2)c1 come in under 40% for growth?
Response given: 1 (yes)

Challenge: Given Nc1nnc(-c2c[nH]c3ccc(Br)cc23)c(-c2c[nH]c3ncc(Br)cc23)n1 , is recorded growth strictly lower than 40%?
Response given: 0 (no)

Challenge: Lab log: compare recorded growth with 40%; is it strictly lower for OCNc1ccc(-n2cnc3cc(-c4ccc(O)cc4)ccc32)cc1C(F)(F)F ?
Response given: 1 (yes)

Challenge: I wonder whether COc1cc(NC(=O)c2cccc(C3CCc4c(cc(OC)c(OC)c4OC)O3)c2)cc(OC)c1OC (centres undefined) has growth below 40%. Can you tell?
Response given: 1 (yes)

Challenge: Regarding O=C(O)Cn1c(O)c(/C=C2/C=c3cc4c(cc3=NC2=O)OCCO4)sc1=S , kindly confirm whether its growth is beneath 40%.
Response given: 0 (no)

---

System: A498 renal
Method: NCI-60 one-dose screen, 48 h (100 = growth as untreated, 0 = no growth, -100 = all killed)
Condition Label: 10 µM unless noted
About 83,000 compounds went through this panel and 20% of them were active in at least one assay; those are over-represented in the sample as a whole. Activity calls are given as the source filed them. The calls were made as follows: active = growth percent below 10; inactive = the rest.
Attribute Measured: growth

Molecule: O=C(NNc1nc2cc(F)ccc2n2c(CN3CC4CNCC4C3)ccc12)c1ccncn1 (stereo not given)
growth: 59% (inactive)
//
Molecule: CCN(CC)c1ccc(/C=N/Nc2nc(-c3ccc(C)cc3)cs2)c(O)c1
growth: 105% (inactive)
//
Molecule: N/N=C(\N)c1c(N)nc(=S)[nH]c1-c1ccc(Cl)cc1Cl
growth: 125% (inactive)
//
Molecule: C/C(=N\N=C\c1cc([N+](=O)[O-])ccc1Cl)c1ccc2c(c1)Nc1ccccc1S2
growth: 6.23% (active)
//
Molecule: O=C(/C=C/c1ccc(O)c(O)c1)NC1CCOC1O (stereo not given)
growth: 109% (inactive)
//
Molecule: Nc1nnc(-c2c[nH]c3ccc(Br)cc23)c(-c2c[nH]c3ncc(Br)cc23)n1
growth: 17.6% (inactive)

Provide the reported growth of each entry below, same order.
1. Cn1cc(-c2cc(N)n3nc(-c4cn(C)c5ccccc45)cc3n2)c2cc(Cl)ccc21
2. O=C(CN1C(=O)/C(=C/c2ccccc2Cl)SC1=S)N1CCOCC1
3. O=C(O)c1cccc(-c2ccc(/C=N/NC(=O)c3[nH]c4ccc(Br)cc4c3-c3ccccc3)s2)c1
4. COc1ccc(C(=O)/C=C/c2ccc(Oc3nc(Nc4ccc(F)cc4)nc(N(C)C)n3)c(OC)c2)cc1

Response given:
1: -24.8% (active); 2: 119% (inactive); 3: 100% (inactive); 4: 78.3% (inactive)

Hey, can you go through the list below and give me growth for every item?
1. Cc1ccc(-c2nc(C#N)c(S(=O)(=O)N3CCN(S(=O)(=O)c4ccccc4)CC3)o2)cc1
2. CN(C)CCn1c2ccccc2c2nc3cc(C(F)(F)F)ccc3nc21

Response given:
123% (inactive)
75.8% (inactive)

Dear colleague, could you send me growth for each of the items below? Thanks.
1. COc1ccc(-c2ccc(SCC(=O)Nc3ccc(S(N)(=O)=O)cc3Br)nn2)cc1
2. Cc1ccc([C@H]2C(C(=O)c3ccc(Cl)cc3)C3(N[C@@H]2c2ccccc2)C(=O)Nc2ccc(Cl)cc23)cc1 (stereo not given in full)
3. CCCS(=O)(=O)N1CCCC(C(=O)Nc2nc3ccc(NC(=O)c4ccc(F)c(OC)c4F)cc3s2)C1 (stereo not given)
4. COc1ccc2c(c1)c(-c1cc3nc(-c4cn(C)c5ncccc45)cc(N)n3n1)cn2C

Response given:
["89.8% (inactive)", "94% (inactive)", "84.3% (inactive)", "16.6% (inactive)"]

Kindly give each listed record's growth.
1. Cn1cc(-c2nnc(N)nc2-c2c[nH]c3ccccc23)c2cccnc21
2. CCCCCCCCOc1cccc(S(=O)(=O)Nc2ccc(C)cc2C(=O)O)c1
3. N#Cc1c(-c2cccnc2)cc(-c2ccc3ccccc3c2)[nH]c1=O

Response given:
1. 86.4% (inactive)
2. 107% (inactive)
3. 111% (inactive)

Challenge: What does the record list as growth for N/C(=N\c1nc2ccccc2s1)NC(=O)Nc1c(Cl)cccc1Cl ?
Response given: 94.3% (inactive)

---

Tested on: IGROV1 ovarian
Method: NCI-60 one-dose screen, 48 h
Condition Label: 10 µM unless noted
Compounds without any hit were thinned out: in the full panel of roughly 83,000, 20% have a hit. Active and inactive are the calls of the source. How the source made its calls: active means growth percent below 10; inactive means the rest.
# valid calls are active, inactive; nothing else

Recorded results for 8 compounds are shown here.
Compound: COc1ccc(/C=C/c2n(Cc3ccc4ccccc4c3)c3ccccc3[n+]2Cc2ccc3ccccc3c2)cc1
Assigned Label: active

Compound: CN1CCN(/C(=N\c2sc(-c3ccccc3)nc2-c2ccccc2)c2ccccc2)CC1
Assigned Label: inactive

Compound: CCOc1ccc(-c2c(C#N)c(-c3ccc(Cl)cc3)nc3n[nH]c(-c4ccc(Cl)cc4)c23)cc1OC
Assigned Label: inactive

Compound: COc1ccc2[nH]c(=O)c(CSc3nccc(-c4ccc(OC)c(OC)c4)n3)cc2c1
Assigned Label: inactive

Compound: COC(=O)/C=C/c1cccc2c1C(=O)NC(C)(c1cc3ccccc3oc1=O)N2 (centres undefined)
Assigned Label: inactive

Compound: O=C(/C=C/c1cccc(OCc2ccccc2)c1)c1nc2ccccc2[nH]1
Assigned Label: inactive

Compound: Cn1cc(-c2cc3nc(-c4c[nH]c5ccc(Cl)cc45)cc(N)n3n2)c2ccccc21
Assigned Label: active

Compound: Cc1ccc(S(=O)(=O)c2nc(S(=O)(=O)c3ccc(C)cc3)c(N3CCC(O)CC3)s2)cc1
Assigned Label: inactive

Challenge: // outcome(item) with item = O=C(COc1ccc(NC(=O)Nc2ccc(Cl)cc2)cc1)N/N=C/c1ccccc1
Response given: active

Challenge: Status in this test for Cn1cc(-c2nnc(N)nc2-c2c[nH]c3ccccc23)c2cccnc21 ?
Response given: inactive

Challenge: Check the results log: what was the call for CC12CC[C@@H]3[C@]4(C)COC(c5cn[nH]c5-c5ccc(Br)cc5)O[C@@H]4CC[C@@]3(C)[C@@H]1CC(C1=CCOC1=O)O2 (some centres undefined) ?
Response given: inactive

Challenge: // param item: O=c1oc2ccccc2cc1-c1csc(N=Nc2c(O)[nH]c3ccc(Cl)cc23)n1 ; yields the recorded call
Response given: inactive

Challenge: State the result this test recorded for CSc1ccc(NC(=O)c2ccc3nn(/C(C#N)=C/c4ccccn4)nc3c2)cc1 .
Response given: active

Challenge: How did this test come out for CCOc1ccc(C(=O)NC(=S)Nc2ccc(S(N)(=O)=O)cc2)cc1 ?
Response given: inactive

Challenge: Could you check what this test reported for CC(=O)c1c(N)c(C#N)cn1-c1ccc(Cl)cc1Cl ?
Response given: inactive

Hello, the source for this data is PubChem BioAssay (NCI), in case you need it.
